- assayed_system: ANGPTL2
- run_parameters: ASO, 5 µM
After the bases stand the sugars from the 5' end (letter, count) and the backbone: PS all phosphorothioate, else s phosphorothioate and o phosphodiester by linkage. Methylation of C is not given here. l = locked nucleic acid (LNA); d = 2'-deoxy (DNA)
readout: target mRNA inhibition (%)
Reply numerically in %, unit not repeated.

Return reported target mRNA inhibition; argument: TTGATGATGCGGTTGTAGGT (sugars l1 d17 l2, PS)
41.3

What measured target mRNA inhibition goes with CCAGGCAGTTTCTTATG (sugars l1 d13 l3, PS) ?
16.4

Tell me the measured target mRNA inhibition of TGTAGGTGCACTTGTC (sugars l2 d12 l2, PS) , please.
28.5

target mRNA inhibition for TGCTGGGGCACAATGAA (sugars l2 d12 l3, PS) ?
28.2

May I ask what target mRNA inhibition has been recorded for ACAGGGAAAGAATTTGGGTC (sugars l1 d16 l3, PS) ?
44.4
